System: rats
Test: Cytokine induction (IP-10) in rats after intravenous administration
Type: in vivo
Conditions: rat, 6 hours after administration of hEPO nanoparticle compositions, 2.0 mpk
Method: The expression of hEPO and cytokine induction in rats intravenously administered a nanoparticle composition at a dose of 2.0 mpk was measured at 6 h. […]
Friendly reminder: IP-10 below 500 pg/mL is rule met, at or above is rule not met.

Previously resolved entries follow.
| molecule | classLabel |
| --- | --- |
| CCCCCCCCCN(CCO)CCCCCCCC(=O)OC(CCCCCCCC)CCCCCCCC [Compound 3] | rule not met |
| CCCCCCCCCOC(=O)CCCCCCCN(CCO)CCCCCCCOC(=O)C(CCCCCCCC)CCCCCCCC [Compound 30] | rule met |
| CCCCCC/C=C\COC(=O)CCCCCCCN(CCO)CCCCCCCC(=O)OC(CCCCCCCC)CCCCCCCC [Compound 24] | rule met |
| CCCCCCCCCCCOC(=O)CCCCCN(CCO)CCCCCCCC(=O)OC(CCCCCCCC)CCCCCCCC [Compound 25] | rule not met |

Input CCCCCC=CCC=CCCCCCCCCC(CCCCCCCCC=CCC=CCCCCC)OC(=O)CCCN(C)C (stereo not drawn) [MC3, reference compound] ; condition: IP-10 strictly below 500 pg/mL. Does it hold?
rule not met

Input CCCCCCCCCOC(=O)CCCCCCCN(CCO)CCCCCCCC(=O)OC(CCCCCCCC)CCCCCCCC [Compound 18] ; condition: IP-10 strictly below 500 pg/mL. Does it hold?
rule not met

----------
Parameter Lymphocytes (Concentration): see the listing below.
Test system: rat
Experiment: Clinical chemistry and hematology in rat after intravenous administration
Format: in vivo
Parameters: unit not given here
Settings: 2 mpk, 48 h post dose
Output: the number by itself.

Below are worked cases with known answers.
| molecule | Lymphocytes (Concentration) |
| --- | --- |
| CCCCCCCCCCCOC(=O)CCCCCN(CCO)CCCCCCCC(=O)OC(CCCCCCCC)CCCCCCCC [Compound 25] | 15924 |
| CCCCCC=CCC=CCCCCCCCCC(CCCCCCCCC=CCC=CCCCCC)OC(=O)CCCN(C)C (centres unmarked) [MC3, reference compound] | 19976 |

Name the recorded Lymphocytes (Concentration) of the item CCCCCCCCCN(CCO)CCCCCCCC(=O)OC(CCCCCCCC)CCCCCCCC [Compound 3] in your answer.
12051

Name the recorded Lymphocytes (Concentration) of the item CCCCCC/C=C\COC(=O)CCCCCCCN(CCO)CCCCCCCC(=O)OC(CCCCCCCC)CCCCCCCC [Compound 24] in your answer.
14100

Name the recorded Lymphocytes (Concentration) of the item CCCCCCCCCOC(=O)CCCCCCCN(CCO)CCCCCCCOC(=O)C(CCCCCCCC)CCCCCCCC [Compound 30] in your answer.
10408.5

----------
Tested on: rat
Assay: Clinical chemistry and hematology in rat after intravenous administration
Format: in vivo
Set-up: unit not given here
Conditions: 2 mpk, 48 h post dose
Friendly reminder: Aspartate aminotransferase (Concentration) below 100 is met, at or above is not met.

Previously resolved entries follow.
| molecule | classLabel |
| --- | --- |
| CCCCCCCCCN(CCO)CCCCCCCC(=O)OC(CCCCCCCC)CCCCCCCC | met |
| CCCCCC=CCC=CCCCCCCCCC(CCCCCCCCC=CCC=CCCCCC)OC(=O)CCCN(C)C (centres unmarked) [MC3, reference compound] | not met |
| CCCCCC/C=C\COC(=O)CCCCCCCN(CCO)CCCCCCCC(=O)OC(CCCCCCCC)CCCCCCCC | met |
| CCCCCCCCCOC(=O)CCCCCCCN(CCO)CCCCCCCOC(=O)C(CCCCCCCC)CCCCCCCC | met |

Input CCCCCCCCCCCOC(=O)CCCCCN(CCO)CCCCCCCC(=O)OC(CCCCCCCC)CCCCCCCC ; condition: Aspartate aminotransferase (Concentration) strictly below 100. Does it hold?
not met

----------
Parameter PDI: see the listing below.
Experiment: Particle size and polydispersity index of nanoparticle compositions (Zetasizer Nano ZS)
Assay type: physicochemical
Details: nanoparticle composition 50:10:38.5:1.5 mol % (Table 1A)
Output: the number by itself.

Below are worked cases with known answers.
| molecule | PDI |
| --- | --- |
| CCCCCCCCC(CC)OC(=O)CCCCCN(CCO)CCCCCCCC(=O)OC(CCCCCCCC)CCCCCCCC (centres unmarked) [Compound 75] | 0.10 |
| CCCCCCCCCOC(=O)CCCCCCCN(CCCCCCCC(=O)OC(CCCCCCCC)CCCCCCCC)CCCN/C(=N/C#N)N(C)C [Compound 168] | 0.1 |
| CCCCCCCCCOC(=O)CCCCCCCN(CCCCCCCC(=O)OC(CCCCCCCC)CCCCCCCC)C(C)CO (centres unmarked) [Compound 157] | 0.096 |
| CCCCCCCCC(CCCCCCCC)OC(=O)CCCCCCCN(CCO)CCCCCC(=O)OC(CCCCCCCC)C1CC1 (centres unmarked) [Compound 128] | 0.14 |

Name the recorded PDI of the item CCCCCCCCCOC(=O)CCCCCCCN(CCO)CCCCCCCC(=O)OC(CCCCCCCC)CCCCCCCC [Compound 18] in your answer.
0.042

----------
Test system: mice
Test: Cytokine induction (IL-6, IP-10) in mice after intravenous administration
Assay type: in vivo
Parameters: unit not given here
Conditions: 0.5 mpk, 6 hours
parameterMeasured: IP-10
Output: the number by itself.

| molecularString | IP-10 |
| --- | --- |
| CCCCCCCCC(CCCCCCCC)OC(=O)CCCCCCCN(CCO)CCCCCCCC(=O)OC(CCCCCCCC)CCCCCCCC | 1362.81 |
| CCCCCCCCCOC(=O)CCCCCCCN(CCO)CCCCCC(=O)OC(CCCCCCCC)CCCCCCCC | 345.56 |
| CCCCCCCCCOC(=O)CCCCCCCN(CCO)CCCCCCCC(=O)N(CCCCCCCC)CCCCCCCC | 4220.55 |

Shifting focus to the compound that follows.
Name the recorded IP-10 of the item CCCCCCCCCOC(=O)CCCCCCCN(CCCO)CCCCCCCC(=O)OC(CCCCCCCC)CCCCCCCC in your answer.
1468.94

----------
Parameter IL-6: see the listing below.
System: mice
Test: Cytokine induction (IL-6, IP-10) in mice after intravenous administration
Assay type: in vivo
Set-up: unit not given here
Conditions: 0.5 mpk, 6 hours

Below are worked cases with known answers.
| molecularString | parameterMeasured | recordedValue |
| --- | --- | --- |
| CCCCCC/C=C\COC(=O)CCCCCCCN(CCO)CCCCCCCC(=O)OC(CCCCCCCC)CCCCCCCC | IL-6 | 163.53 |
| CCCCCC/C=C\COC(=O)CCCCCCCN(CCO)CCCCCCCC(=O)OC/C=C\CCCCCC | IL-6 | 23.57 |
| CCCCCCCCCOC(=O)CCCCCCCN(CCO)CCCCCCCC(=O)N(CCCCCCCC)CCCCCCCC | IL-6 | 319.46 |

Shifting focus to the molecule that follows.
Name the recorded IL-6 of the item CCCCCCCCCOC(=O)CCCCCCCN(CCCCCCCC(=O)OC(CCCCCCCC)CCCCCCCC)CCOCCN(C)C in your answer.
138.43

----------
Parameter Size (nm): see the listing below.
Assay: Particle size and polydispersity index of nanoparticle compositions (Zetasizer Nano ZS)
Assay type: physicochemical
Conditions: nanoparticle composition lipid:DSPC:cholesterol:PEG-DMG 50:10:38.5:1.5 mol %, mRNA encoding Luc or hEPO (Table 1A)
Reply with the number and its unit after it.

Below are worked cases with known answers.
| compound | Size (nm) |
| --- | --- |
| CCCCCCCCC(CCCCCCCC)OC(=O)CCCCCCCN(CCO)CCCC(=O)OC(CCCCC)CCCCCCCC (centres unmarked) | 60.1 nm |
| CCCCCCCCC(CC)OC(=O)CCCCCCCN(CCO)CCCCCCCC(=O)OC(CCCCCCCC)CCCCCCCC (centres unmarked) | 73.1 nm |
| CCCCCCCCC(CC)OC(=O)CCCN(CCO)CCCCCCCC(=O)OC(CCCCCCCC)CCCCCCCC (centres unmarked) | 65.4 nm |
| CCCCCCCCCOC(=O)CCCCCCCN(CCCCCCCC(=O)OC(CCCCCCCC)CCCCCCCC)CCCNc1c(N(C)C)c(=O)c1=O | 75.4 nm |
| CCCCCCCCCOC(=O)CCCCCCCN(CCCCCCCC(=O)OC(CCCCCCCC)CCCCCCCC)C(CO)CO | 74.3 nm |

Name the recorded Size (nm) of the item CCCCCCCCCOC(=O)CCCCCCCN(CCCCCCCC(=O)OC(CCCCCCCC)CCCCCCCC)CCCNC(=O)NC in your answer.
85.7 nm

Name the recorded Size (nm) of the item CCCCCCCCCOC(=O)CCCCCCCN(CCCCCCCC(=O)OC(CCCCCCCC)CCCCCCCC)CCCNC(=O)N(C)C in your answer.
118 nm

Name the recorded Size (nm) of the item CCCCCCCCCOC(=O)CCCCCCCN(CCO)CCCCCCCC(=O)OC(CCCCCCCC)CCCCCCCC in your answer.
86.2 nm

Name the recorded Size (nm) of the item CCCCCCCCCOC(=O)CCCCCCCN(CCCCCCCC(=O)OC(CCCCCCCC)CCCCCCCC)CCCN/C(=N/C#N)N(C)C in your answer.
80.7 nm

Name the recorded Size (nm) of the item CCCCCCCCCOC(=O)CCCCCCCN(CCCCCCCC(=O)OC(CCCCCCCC)CCCCCCCC)CCCNC(=S)NC in your answer.
69.2 nm

Name the recorded Size (nm) of the item CCCCCCCCCOC(=O)CCCCCCCN(CCO)CCCCCCC(=O)OCC(CCCCCCCC)CCCCCCCC in your answer.
93.3 nm
